# assay.summary: yeast display, Sf9 membrane polyspecificity reagent, FACS + sequencing; frameworks hold sequencing errors
measurement.kind: polyreactivity (PSR sort gate)

Observe how each entry below is paired with its result.
* QVQLGESGGGFFKAGASLRVICAASGRTFRRNAKGWYRQSPGTERELVAAITCGGSTNYADSVKGRFTISRDNENNTVYLQMNSLKPEDTAVYYCNADSVWGWYTYDYWGQGTQVTVSS | high polyreactivity
* QVQLVESGGGLVQAGGSLRLTCAASGLIFVDNAMGWYRQAPGKERELVAAIDSGGSTNYADSVKGRFTISRDNAKNTVYLPMNSLKPEDTAVYYCAAEYVRFYWYTSDYWGQGTQVTVSS | low polyreactivity
* QVQLVESGGGLVQAGGSLRLSCAASGIIFPNYAMGWYRQAPGKERELFAAITWRGGGTYYADSVKGRFTISRDNAKNTVYLQMNSLKPEDTAVYYCAAQKAYPRRYYGYKWEYYYWGQGSQVTVSS | high polyreactivity
* QVQLVESGGGLVQAGGSLRLSCAASGLTFYRNAMGWYRQAPGKEREFVAAITSTDGSTYYADSVKGRFTISRDNAKNTVYLQMNSLKPEDTAVYYCAARRRRWSGYWGQGTQVTVSS | high polyreactivity
* QVQLVESGGGLVQAGGSLRLSCAASGYTFWDYTMGWYRQAPGKERELVAAISSSGSSTYYADSVKGRFTISRDNAKNTVYLQMNSLKPEDTAVYYCAAYSRRQWKYDYWGQGTQVTVSS | high polyreactivity

So, `QVQLVESGGGLDQAGGSLRLTCADSGSIFIRNAMGWYRHAPGKESELVAAISGSGSSTYYADSVKGRFTISRDNAKNTVYLQMNSLKPEDTAVYYCNTDRTHSYQYGGYDYWGQGTQVTVSS` ? Its polyreactivity (PSR sort gate) was low polyreactivity

`QVQLVESGGGLVQAGGSLRLSCAASGSIFKWYAMGWYRQAPGKERALVATISSSGSSTYYADSVKGRLTISRDNAKNTVYLQMNSLKPEDTAVYYCATTYGWRYPAMDYWGQGTQVTVSS` yielded polyreactivity (PSR sort gate) of high polyreactivity

What the record says about `QVQLVESGGGLVQAGGSLRLSCAASGRIFGSYAMGWYRPAPGKERELVAAINRSGGSTRYADSVKGRFTISRDNAKNTVYLQMNSLKPEDTAVYYCAAPSYARYYAYDSWGQGTQVTVSS` : polyreactivity (PSR sort gate) is high polyreactivity

# polyreactivity (PSR sort gate) (sequence: `QVQLVESGGGLVQAGGSLRLSCAASGFTFKRYAMGWYRQAPGKERELVAAISWSGGSTYYADSVKGRFTISRDNAKNTVYLQMNSLKPEDTAVYYCAADGGSTEEYYYWGQGTQVTVSS` ) is high polyreactivity

Briefly, polyreactivity (PSR sort gate) measured for `QVQLVESGGGLVQAGGSLRLSCAASGSIFGDYVMGWNRQAPGKERELVAAINRGGSTYYADSVKGRFTISRDNAKNTVYLQMNSLKPEDTAVYYCAAGYPSWYYGYPYDSWGQGSQVTVSS` : low polyreactivity

polyreactivity (PSR sort gate) in this record for `QVQLEESGGRLVQAGGRLRLNCAASGLTFNTNSMGWYRKAPGKERELVAAISRGGGSTYYADSVKGRFTISRDNAKNSVYLQMNSLKPEDTAVYYCNAEKSASYLLYDYWGQGTLVTVSS` : high polyreactivity

# polyreactivity (PSR sort gate) (sequence: `QVQLVESGGGLVQAGGSLRLSCAASGLIFSYYTMGWYRQAPGKERELVAAISSAGGSTYYADSVKGRFTISRDNAKNTVYLQMNSLKPEDTAVYYCAARYSGRPYGPPGYLWKDYYWGQGTQVTVSS` ) is high polyreactivity

The reported value for `QVQLVESGGGLVQAGGSLRLTCAASGIILVAYPMGWYRQAPGKERELVAAITTSGTSTYYADSVKGRFTISRDNAKNTGYVQMNSLKPEDTAVYYCAVRQRYGPARYDYWGQGTQVTVSS` in terms of polyreactivity (PSR sort gate) is high polyreactivity

// field: polyreactivity (PSR sort gate); key: `QVQLVESGGGLVQAGGSLRLSCAASGRIFWYYNMGRYRQAPGKERELVASINSDTGTYYADSVKGRFTISRDNAKNTVYLQMNSLKPEDTAVYYCTRDSESDANTFTTSGIDEPYDYWGQGTQVTVSS` ; value = low polyreactivity

The value of polyreactivity (PSR sort gate) measured for the sequence `QVQLVESGGGLVQAGGSLRLSCAATGRIFRYYTMGWYRQAPGKERELVAAITSSSGSTYYADSVKGRFTISRDNAKNTVYLQMNSLKPEDTAVYYCNAVRYTTQTPNVDYGYWGQGTQVTVSS` turned out to be high polyreactivity

Record summary for `QVQLVESGAGLVQEGGSLRLICAASGRTFRGSDMGWYSPAPGKERELVAAITSGGSTNYADSVKGRFTISRDNAKNTVYLHMNSLKPEDPAVYYCNRDTSKYGLWRYIYDYWGQGTQVNVSS` : reported polyreactivity (PSR sort gate) = low polyreactivity
